# credit: the supplement of paper PMC9170038

Test system: MS2 coat protein
Assay: apparent KD of MS2 coat protein; higher = weaker reporter binding
Conditions: Eterna round: R107; input ligand: theophylline 20 uM
The following sequences are listed with their measured apparent KD of MS2 coat protein values.
recorded-metric: apparent KD of MS2 coat protein (nM)

polymer-sequence: CAUGCGGCUAGUGAGCGUGGUGAGUAAAGGCGAGGACCGGUACGGCCGCCACUCGAGGCAAGACAUGAGGAUCACCCAUGUUGUA [theeternabot_exclusion_MS2_Trp_A_27]
recorded-metric: apparent KD of MS2 coat protein
units: nM
meas-value: 19.3
//
polymer-sequence: AGCAGUACAACAGAUACCAGACUUUUCAUGCCUUUAAUUACAUGAGGAUCACCCAUGUUUGUCCCUUGGCAGCUGUUGUACUGCA [JR_ExcTheophyB_Sub011]
recorded-metric: apparent KD of MS2 coat protein
units: nM
meas-value: 62.8
//
polymer-sequence: AUAAGUAAUGUCUCGUGUAUUAUUACAGAUACCAGACUAUCCUAUGUCCCUUGGCAGCUGGAUUACAUGAGGAUCACCCAUGUUG [#10 Exclusion-TheophyllineA]
recorded-metric: apparent KD of MS2 coat protein
units: nM
meas-value: 25.3
//
polymer-sequence: AGACAUGAGGAUCACCCAUGUAGUAUGGAUACCAGAUGUAGAUUAGUCCCUUGGCAGCUGUGCUGAAGUGAUGCAUUGCUCCUAG [#15 Exclusion-TheophyllineA]
recorded-metric: apparent KD of MS2 coat protein
units: nM
meas-value: 33.5
//
polymer-sequence: UUUCUUUUCUUUCUUUCCUUUCAAACCGAAGGAGCGGGAACAAACCCAGGUAGGUCGCGGUGUGACAUGAGGAUCACCCAUGUGU [Exclusion - Arginine]
recorded-metric: apparent KD of MS2 coat protein
units: nM
meas-value: 106

----------
Below: a set of entries, each annotated with reported apparent KD of K4 kissing-loop reporter.
Tested on: K4 kissing-loop RNA reporter
Assay: apparent KD of K4 kissing-loop reporter; higher = weaker reporter binding
Settings: Eterna round: R107; input ligand: theophylline 20 uM
recorded-metric: apparent KD of K4 kissing-loop reporter (nM)

polymer-sequence: UUAGCCCUAUAGGGCAAGACCUAUACUGAUACCAGAGGGUAUACCCUCCCUUGGCAGCGGAUCGAGUGAUGUUCGUAAGGUCAUU [AK4.4 SS Theophylline A]
experimental-target: K4 kissing-loop RNA reporter
units: nM
meas-value: 776

polymer-sequence: GGAUAGGACAGAGGAUAUGGGCUAGGCAAGAAUAACUUGUCUAGCAAAUCCAUGAGGAGUGAUGUUCCAGAAGGUUGUCCUAUCG [FmnBX 1 U75]
experimental-target: K4 kissing-loop RNA reporter
units: nM
meas-value: 120

polymer-sequence: GAACGGAGUGAUGUUCCGUUGACGAUCCUACGAGGACCGGUACGGCCGCCACUCGUAUUGCAGUGAUGUUGCAACCAGCCGUACU [Exclusion Tryptophan A GF 10]
experimental-target: K4 kissing-loop RNA reporter
units: nM
meas-value: 106

polymer-sequence: CACCAUGAAUUCUCUAGGAGUGAUGUUUUUCGAGGACCGGUACGGCCGCCACUCGGACCAGGAACGUGGGAGCGGCGAAAAGACU [ttmullin]
experimental-target: K4 kissing-loop RNA reporter
units: nM
meas-value: 494

polymer-sequence: AGAUGUCUCUGGGAUACCAGUCGGAGUCUCAGGGCUCGGAGUGAUGUUCUGGGAUGUUUCGGCCCUUGGCAGCCCUGGGACUCCC [#2 Exclusion - Theophylline B Attempt #27 (HarryS)]
experimental-target: K4 kissing-loop RNA reporter
units: nM
meas-value: 740

polymer-sequence: GCACUUCUCAGUGAUGUUGAGUAAUCGGAAGGAGCGCGUGAAAACGCAGGUAGGUCGCCGAUACAUGAAGUAUCUUCGUGUGUGC [Arginine A K4 25]
experimental-target: K4 kissing-loop RNA reporter
units: nM
meas-value: 279

polymer-sequence: UGGCGAGUGAUGUUCGUUGUUGUAGUGUGUCGAGGACCGGUACGGCCGCCACUCGGGUUGGUUGUUGUUGUUGUUGUUGUUGUUG [First Shot]
experimental-target: K4 kissing-loop RNA reporter
units: nM
meas-value: 292

polymer-sequence: UGAUAGGACAGAAGGAGCGGCAGUGAUGUUGCCAAAAGGAUAAGGUGUCAAAAGACACCCUGCCAGGUAGGUCGCUGUCCUAUCU
experimental-target: K4 kissing-loop RNA reporter
units: nM
meas-value: 298

polymer-sequence: GCGCGUCAUGGCGGCGGUGACUACGCCGAUACCAGCCGGGAAACCGGCCCUUGGCAGCGGCGCGCCGGAGUGAUGUUCCGACAGA [#2 Exclusion - Theophylline A Attempt #4 (HarryS)]
experimental-target: K4 kissing-loop RNA reporter
units: nM
meas-value: 370

polymer-sequence: UGUAUGUGAUUUGAUACCAGACCAGGUGGAGGAAUCUGAGUGAUGUUCAGGUAGGUUUGGGUCCCUUGGCAGCAAAUCGCAUACU [KL-SSTheoB18]
experimental-target: K4 kissing-loop RNA reporter
units: nM
meas-value: 176

polymer-sequence: AGCUCAGAGUGACUCGAUAAGAGUCACAAACGAGGACCGGUACGGCCGCCACUCGAAAUAACGAGAGUGAUGUUCUCGCUGGGCA [FiskerMod 1 - Jieux - Same State Tryptophan A]
experimental-target: K4 kissing-loop RNA reporter
units: nM
meas-value: 540

polymer-sequence: UUUUUGGAGAAUUAUAGUGAUGUUAUGAAGGAGGAUAUCUGGAGAUGGAGAAGGCCUAGUGGCUCAGCCCUCGAGGGUGGGUGGG [ExFMNA.aC]
experimental-target: K4 kissing-loop RNA reporter
units: nM
meas-value: 778

polymer-sequence: CGCAGUGAUGUUGCGAGUAGCUACAGGGAAGGAGCGCGCUAGUGCGCAGGUAGGUCGCCCACGCAGUGAUGUUGCGUCAUAGGGU [Exclusion Arg A GF8]
experimental-target: K4 kissing-loop RNA reporter
units: nM
meas-value: 137

polymer-sequence: AGGUCCGAGCCUGCAAAGGCUCGGACCUGUUAGGAUAUGACGUUAUUCAGAAGGGAUGGGUGGAGUGAUGUUCCACCCGCAAGGG [#2 Same State - FMN A Attempt #7 (HarryS)]
experimental-target: K4 kissing-loop RNA reporter
units: nM
meas-value: 98.4

polymer-sequence: AAGGUAUCACCAACUUGCAACAAAGGUGAUACCAGCAUCGAAAGAUGCCCUUGGCAGCACCAACUUGCAGUGAUGUUGCAAGUAA [(T)'-(H)'-(T1)-(T2)-(H1)-(H2)_Design10]
experimental-target: K4 kissing-loop RNA reporter
units: nM
meas-value: 186

polymer-sequence: AAGGCAGUUCGAGGAUAUCACAUACACUCCUUGAAUCAAGGAGUGAUGUUCCUUGAAGUGUAUGCAUGAGAAGGCGAAUUGCCUU [FMN B SS t5]
experimental-target: K4 kissing-loop RNA reporter;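 also: bound reporter read as fluorescence of individual clusters on recovered sequencing chips by microscopy, with normalized cluster intensities fitted with a binding model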
units: nM
meas-value: 103
